Listed here: compounds with reported IC50 for Amine oxidase [flavin-containing] A (Homo sapiens).

Examples with their reported IC50 follow.
# compound, system_tested, IC50
records = [
    ("FC(F)(F)Cc1cc2c(N[C@H]3CC[C@@H](N[C@H]4C[C@@H]4c4ccccc4)CC3)ncnc2s1", "Amine oxidase [flavin-containing] A (Homo sapiens)", "> 100 µM"),
    ("FC(F)(F)Cc1cc2c(N3CCC(N[C@@H]4C[C@H]4c4ccccc4)CC3)ncnc2s1", "Amine oxidase [flavin-containing] A (Homo sapiens)", "12.5 µM"),
    ("FC(F)(F)Cc1cc2c(N[C@H]3CC[C@H](CN[C@H]4C[C@@H]4c4ccccc4)CC3)ncnc2s1", "Amine oxidase [flavin-containing] A (Homo sapiens)", "8.57 µM"),
    ("Fc1ccc([C@@H]2C[C@H]2NC[C@H]2CC[C@H](Nc3ncnc4sc(CC(F)(F)F)cc34)CC2)cc1F", "Amine oxidase [flavin-containing] A (Homo sapiens)", "21 µM"),
    ("Fc1ccc([C@@H]2C[C@H]2NC2CCN(c3ncnc4sc(CC(F)(F)F)cc34)CC2)cc1F", "Amine oxidase [flavin-containing] A (Homo sapiens)", "56.4 µM"),
    ("FC(F)(F)Cc1cc2c(N3CCC(CN[C@@H]4C[C@H]4c4ccccc4)CC3)ncnc2s1", "Amine oxidase [flavin-containing] A (Homo sapiens)", "2.23 µM"),
]

Attention now shifts to the item below.
Item: O=C(O)c1ccc(CN2CCC(CN[C@@H]3C[C@H]3c3ccccc3)CC2)cc1 [GSK2879552] | System: Amine oxidase [flavin-containing] A (Homo sapiens) | IC50: > 100 µM
